FYI, the data here is from patent US20190134153A1.

- TARGET_OR_SYSTEM: IR(h) (Homo sapiens, UniProt P06213)
- TEST_SUMMARY: Kinase Profiling Assay
- Assay type: biochemical
- SETUP_CONDITIONS: 100 μM
I'd be grateful if you could share measured % activity for these entries.
Respond with the bare value in %.

*Q* Any idea what its % activity is? The sequence is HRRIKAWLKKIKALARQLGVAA [MMI-0500]
*A* 95

*Q* Any idea what its % activity is? The sequence is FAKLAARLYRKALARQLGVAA [MMI-0300]
*A* 96

*Q* Any idea what its % activity is? The sequence is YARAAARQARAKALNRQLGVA [MMI-0200]
*A* 90

*Q* Any idea what its % activity is? The sequence is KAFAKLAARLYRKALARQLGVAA [MMI-0400]
*A* 85

====

I'd be grateful if you could share measured % activity for these entries.
- TARGET_OR_SYSTEM: CDK5/p35(h) (Homo sapiens)
- Sequence (Q00535 whole entry): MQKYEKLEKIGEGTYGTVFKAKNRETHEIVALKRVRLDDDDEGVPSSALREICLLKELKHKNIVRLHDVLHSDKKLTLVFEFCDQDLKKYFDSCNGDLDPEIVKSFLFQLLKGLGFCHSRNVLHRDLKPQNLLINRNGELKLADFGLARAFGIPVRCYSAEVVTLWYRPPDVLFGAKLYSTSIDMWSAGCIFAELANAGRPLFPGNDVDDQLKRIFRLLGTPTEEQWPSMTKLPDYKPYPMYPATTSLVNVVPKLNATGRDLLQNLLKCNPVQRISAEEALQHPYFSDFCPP
- Sequence (Q15078 whole entry partner): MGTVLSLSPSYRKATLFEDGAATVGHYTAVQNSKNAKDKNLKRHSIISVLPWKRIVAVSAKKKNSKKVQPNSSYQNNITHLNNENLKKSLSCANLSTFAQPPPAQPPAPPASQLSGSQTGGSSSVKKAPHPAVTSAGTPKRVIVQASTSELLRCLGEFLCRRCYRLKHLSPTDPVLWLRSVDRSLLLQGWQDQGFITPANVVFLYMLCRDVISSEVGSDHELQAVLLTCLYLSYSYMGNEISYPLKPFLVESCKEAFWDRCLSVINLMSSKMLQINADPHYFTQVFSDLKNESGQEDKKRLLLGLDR
- TEST_SUMMARY: Kinase Profiling Assay
- Assay type: biochemical
- SETUP_CONDITIONS: 100 μM
Respond with the bare value in %.

*Q* Kindly state the measured % activity obtained for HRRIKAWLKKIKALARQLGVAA [MMI-0500] with CDK5/p35(h) (Homo sapiens).
*A* 59

*Q* Kindly state the measured % activity obtained for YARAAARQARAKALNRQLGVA [MMI-0200] with CDK5/p35(h) (Homo sapiens).
*A* 92

*Q* Kindly state the measured % activity obtained for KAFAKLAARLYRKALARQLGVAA [MMI-0400] with CDK5/p35(h) (Homo sapiens).
*A* 76

*Q* Kindly state the measured % activity obtained for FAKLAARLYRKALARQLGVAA [MMI-0300] with CDK5/p35(h) (Homo sapiens).
*A* 79

====

I'd be grateful if you could share measured % activity for these entries.
- TARGET_OR_SYSTEM: MELK(h) (Homo sapiens, UniProt Q14680)
- Sequence (Q14680 whole entry): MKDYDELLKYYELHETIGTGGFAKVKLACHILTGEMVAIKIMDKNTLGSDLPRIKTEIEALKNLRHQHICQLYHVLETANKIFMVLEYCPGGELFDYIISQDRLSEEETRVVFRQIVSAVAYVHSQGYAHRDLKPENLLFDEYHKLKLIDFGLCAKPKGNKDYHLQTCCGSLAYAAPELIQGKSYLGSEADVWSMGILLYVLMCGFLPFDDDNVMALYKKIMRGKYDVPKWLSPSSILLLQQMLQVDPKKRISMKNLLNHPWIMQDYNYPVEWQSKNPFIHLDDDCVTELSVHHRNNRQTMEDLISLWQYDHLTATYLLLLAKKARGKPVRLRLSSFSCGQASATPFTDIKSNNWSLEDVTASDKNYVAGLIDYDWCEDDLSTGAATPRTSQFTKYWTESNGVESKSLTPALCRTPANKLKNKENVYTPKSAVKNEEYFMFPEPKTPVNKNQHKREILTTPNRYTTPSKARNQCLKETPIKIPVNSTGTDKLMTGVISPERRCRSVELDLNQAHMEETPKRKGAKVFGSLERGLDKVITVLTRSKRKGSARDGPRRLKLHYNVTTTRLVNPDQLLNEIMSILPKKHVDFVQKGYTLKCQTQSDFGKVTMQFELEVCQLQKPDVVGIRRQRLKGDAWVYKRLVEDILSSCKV
- TEST_SUMMARY: Kinase Profiling Assay
- Type: biochemical
- SETUP_CONDITIONS: 100 μM

*Q* Kindly state the measured % activity obtained for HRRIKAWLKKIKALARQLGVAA [MMI-0500] with MELK(h) (Homo sapiens, UniProt Q14680).
*A* 0%

*Q* Kindly state the measured % activity obtained for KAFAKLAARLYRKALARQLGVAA [MMI-0400] with MELK(h) (Homo sapiens, UniProt Q14680).
*A* 17%

*Q* Kindly state the measured % activity obtained for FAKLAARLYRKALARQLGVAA [MMI-0300] with MELK(h) (Homo sapiens, UniProt Q14680).
*A* 16%

*Q* Kindly state the measured % activity obtained for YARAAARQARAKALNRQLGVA [MMI-0200] with MELK(h) (Homo sapiens, UniProt Q14680).
*A* 59%

====

- TARGET_OR_SYSTEM: Fes(h) (Homo sapiens, UniProt P07332)
- Sequence (P07332 whole entry): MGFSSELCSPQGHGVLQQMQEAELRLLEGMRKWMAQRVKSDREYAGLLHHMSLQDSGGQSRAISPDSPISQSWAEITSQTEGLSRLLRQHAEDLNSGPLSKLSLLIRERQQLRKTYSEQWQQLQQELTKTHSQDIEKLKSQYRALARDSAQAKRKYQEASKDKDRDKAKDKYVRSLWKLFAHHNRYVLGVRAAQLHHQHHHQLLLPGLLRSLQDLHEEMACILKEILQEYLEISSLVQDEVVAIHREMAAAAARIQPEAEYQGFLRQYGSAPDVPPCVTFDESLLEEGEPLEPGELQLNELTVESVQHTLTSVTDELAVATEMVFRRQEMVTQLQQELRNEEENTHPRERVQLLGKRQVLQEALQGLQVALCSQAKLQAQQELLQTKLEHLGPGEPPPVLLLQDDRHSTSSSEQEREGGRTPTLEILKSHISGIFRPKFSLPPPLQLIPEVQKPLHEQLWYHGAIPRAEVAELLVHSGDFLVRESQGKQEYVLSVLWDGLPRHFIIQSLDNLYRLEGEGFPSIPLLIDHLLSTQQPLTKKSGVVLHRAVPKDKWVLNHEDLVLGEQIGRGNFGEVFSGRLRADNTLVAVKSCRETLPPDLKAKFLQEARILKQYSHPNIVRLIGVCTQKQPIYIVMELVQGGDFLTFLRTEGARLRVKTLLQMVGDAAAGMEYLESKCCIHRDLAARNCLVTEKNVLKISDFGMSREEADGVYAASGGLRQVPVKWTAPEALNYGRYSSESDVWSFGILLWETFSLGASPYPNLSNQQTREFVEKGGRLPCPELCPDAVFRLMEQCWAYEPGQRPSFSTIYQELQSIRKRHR
- TEST_SUMMARY: Kinase Profiling Assay
- Type: biochemical
- SETUP_CONDITIONS: 100 μM
I'd be grateful if you could share measured % activity for these entries.
Respond with the bare value in %.

*Q* Any idea what its % activity is? The sequence is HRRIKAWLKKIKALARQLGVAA [MMI-0500]
*A* 23

*Q* Any idea what its % activity is? The sequence is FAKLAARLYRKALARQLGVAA [MMI-0300]
*A* 20

*Q* Any idea what its % activity is? The sequence is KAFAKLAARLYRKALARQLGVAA [MMI-0400]
*A* 16

*Q* Any idea what its % activity is? The sequence is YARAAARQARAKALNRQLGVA [MMI-0200]
*A* 74
